Subject of test: recombinant D-AAO (Glutamicibacter protophormiae, UniProt Q7X2D3)
Construct: The restriction sites NdeI and BamHI were attached to the dao gene by PCR; made in house; host or cells: E. coli BL21(DE3)
Assay method text: Substrate specificity of the recombinant D-AAO (photometric peroxidase/o-dianisidine test)
Format: biochemical, Arthrobacter protophormiae
Experimental conditions: partial substrate spectrum, Table 2
Measured metric: Substrate quality (in words)

N[C@H](Cc1ccccc1)C(=O)O [D-Phenylalanine] : effective in converting
CSCC[C@@H](N)C(=O)O [D-Methionine] : best substrates
NCCCC[C@@H](N)C(=O)O [D-Lysine] : best substrates
N=C(N)NCCC[C@@H](N)C(=O)O [D-Arginine] : effective in converting

====

Subject of test: recombinant D-AAO (Glutamicibacter protophormiae, UniProt Q7X2D3)
Construct: The restriction sites NdeI and BamHI were attached to the dao gene by PCR; made in house; host or cells: E. coli BL21(DE3)
Assay method text: Substrate specificity of the recombinant D-AAO (photometric peroxidase/o-dianisidine test)
Type: biochemical, Arthrobacter protophormiae
Experimental conditions: read-out: Relative activity
Here, each record is paired with measured activity at 10000 µM data.
Give a bare numeral; the unit % is implied.

N=C(N)NCCC[C@@H](N)C(=O)O [D-Arginine] : 80

query: Kindly state the measured activity at 10000 µM obtained for CSCC[C@@H](N)C(=O)O [D-Methionine] with recombinant D-AAO (Glutamicibacter protophormiae, UniProt Q7X2D3).
result: 100

query: Kindly state the measured activity at 10000 µM obtained for CC(C)[C@@H](N)C(=O)O [D-Valine] with recombinant D-AAO (Glutamicibacter protophormiae, UniProt Q7X2D3).
result: 0.35

====

Subject of test: recombinant D-AAO (Glutamicibacter protophormiae)
Construct: The restriction sites NdeI and BamHI were attached to the dao gene by PCR; made in house; host or cells: E. coli BL21(DE3)
Assay method text: Substrate specificity of the recombinant D-AAO (photometric peroxidase/o-dianisidine test)
Format: biochemical, Arthrobacter protophormiae
Experimental conditions: DL-amino acid, concentration increased to 20 mM; read-out: Relative activity
Here, each record is paired with measured activity at 20000 µM data.
Give a bare numeral; the unit % is implied.

Would you please look over these solved cases?
CC(C)(C)C(N)C(=O)O (racemic) [DL-tert-Leucine] : 0.12
COCC(N)C(=O)O (racemic) [O-Methyl-DL-serine] : 0.33
NC(Cc1ccc(F)cc1)C(=O)O (racemic) [4-Fluoro-DL-phenylalanine] : 81

Turning now to a further record.
query: So what does the record say about activity at 20000 µM for CNC(CC(C)C)C(=O)O (racemic) [N-Methyl-DL-leucine] ?
result: 2.1

====

Subject of test: partly purified D-AAO (Glutamicibacter protophormiae)
Sequence (Q7X2D3 1-326): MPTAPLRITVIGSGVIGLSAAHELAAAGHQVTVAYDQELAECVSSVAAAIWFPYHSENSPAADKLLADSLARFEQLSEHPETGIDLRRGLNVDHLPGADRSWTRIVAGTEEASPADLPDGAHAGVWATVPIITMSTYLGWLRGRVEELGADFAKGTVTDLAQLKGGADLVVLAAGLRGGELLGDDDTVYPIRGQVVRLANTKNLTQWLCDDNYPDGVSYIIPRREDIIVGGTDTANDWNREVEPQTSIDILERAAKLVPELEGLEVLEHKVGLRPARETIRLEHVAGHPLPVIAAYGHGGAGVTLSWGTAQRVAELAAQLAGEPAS
Measured metric: pKi
As a rule, pKi stands for the negative log10 of the concentration, concentration in M.

query: So what does the record say about pKi for N[C@H](Cc1ccccc1)C(=O)O ?
result: 1.26

====

Here, each record is paired with measured activity at 10000 µM data.
Subject of test: recombinant D-AAO (Glutamicibacter protophormiae, UniProt Q7X2D3)
Construct: The restriction sites NdeI and BamHI were attached to the dao gene by PCR; made in house; host or cells: E. coli BL21(DE3)
Assay method text: Substrate specificity of the recombinant D-AAO (photometric peroxidase/o-dianisidine test)
Format: biochemical, Arthrobacter protophormiae
Experimental conditions: read-out: Relative activity
Give a bare numeral; the unit % is implied.

N[C@H](Cc1c[nH]cn1)C(=O)O [D-Histidine] : 5.9
O=C(O)[C@H]1CCCN1 [D-Proline] : 0.25
CC[C@H](C)[C@@H](N)C(=O)O [D-allo-Isoleucine] : 1

query: So what does the record say about activity at 10000 µM for CC(C)C[C@@H](N)C(=O)O [D-Leucine] ?
result: 12

query: So what does the record say about activity at 10000 µM for NCCCC[C@@H](N)C(=O)O [D-Lysine] ?
result: 99

query: So what does the record say about activity at 10000 µM for N[C@H](Cc1ccccc1)C(=O)O [D-Phenylalanine] ?
result: 54

query: So what does the record say about activity at 10000 µM for C[C@@H](N)C(=O)O [D-Alanine] ?
result: 0.26
